# condition.context: in methanol, 308.6 K
readout.label: solubility (mole fraction)
Write the number on its own, no unit after it.

For the compound shown here, `O=c1c(O)c(-c2ccc(O)c(O)c2)oc2cc(O)cc(O)c12` , give the reported solubility (mole fraction).
0.00104

###

# condition.context: in water, 325.6 K
readout.label: solubility (mole fraction)
Write the number on its own, no unit after it.

For the compound shown here, `O=c1c(O)c(-c2ccc(O)c(O)c2)oc2cc(O)cc(O)c12` , give the reported solubility (mole fraction).
7.13e-05

###

# condition.context: in ethanol, 325.6 K
readout.label: solubility (mole fraction)
Write the number on its own, no unit after it.

For the compound shown here, `O=c1c(O)c(-c2ccc(O)c(O)c2)oc2cc(O)cc(O)c12` , give the reported solubility (mole fraction).
0.0023
